# target: T1, mouse common cytokine receptor γ-chain (IL-2Rγ) (mouse, UniProt P34902 23-263, limits assumed)
# T1 construct: Recombinant mouse IL-2Rγ protein; also called mo IL-2R; mouse IL-2R gamma
# T1 sequence (looked up): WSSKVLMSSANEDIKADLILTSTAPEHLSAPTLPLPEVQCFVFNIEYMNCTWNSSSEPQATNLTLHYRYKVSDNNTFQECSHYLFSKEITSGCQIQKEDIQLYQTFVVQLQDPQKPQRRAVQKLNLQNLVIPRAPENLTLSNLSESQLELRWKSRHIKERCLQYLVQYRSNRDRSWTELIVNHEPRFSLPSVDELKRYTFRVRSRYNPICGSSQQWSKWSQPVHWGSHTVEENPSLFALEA
# assay method text: P.E. binding ELISA
observable: PE binding ELISA OD (OD450 nm)
Quick reminder: number only, in OD450 nm, skip the unit.

binder	observable	measure unit	test value
FJ1427_P035MP07A05 (VHH, tested as periplasmic extract; also called Clone nr) VHH: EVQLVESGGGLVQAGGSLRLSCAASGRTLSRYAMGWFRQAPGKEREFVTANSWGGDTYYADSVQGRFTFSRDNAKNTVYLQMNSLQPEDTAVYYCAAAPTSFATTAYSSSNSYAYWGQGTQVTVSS	PE binding ELISA OD	OD450 nm	0.046

Query: Report measured PE binding ELISA OD; entry is FJ1427_P035MP07E04 (VHH, tested as periplasmic extract; also called Clone nr; 605) VHH: QVQLVESGGGLVQAGDSLRLSCEASGRTLSRYAMGWFRQAPGKEREFVTANSWGGDTYYADSVQGRFTFSRDNAKNTVYLQMNSLQPEDTAVYYCAAAPTSFATTAYSSSNSYAYWGQGTQVTVSS
Result: 0.046

Query: Report measured PE binding ELISA OD; entry is FJ1427_P035MP07G02 (VHH, tested as periplasmic extract; also called Clone nr) VHH: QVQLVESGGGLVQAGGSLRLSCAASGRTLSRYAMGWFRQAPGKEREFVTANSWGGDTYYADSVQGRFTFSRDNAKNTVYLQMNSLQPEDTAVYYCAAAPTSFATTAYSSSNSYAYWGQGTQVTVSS
Result: 0.051

Query: Report measured PE binding ELISA OD; entry is FJ1427_P035MP07A08 (VHH, tested as periplasmic extract; also called Clone nr; 633) VHH: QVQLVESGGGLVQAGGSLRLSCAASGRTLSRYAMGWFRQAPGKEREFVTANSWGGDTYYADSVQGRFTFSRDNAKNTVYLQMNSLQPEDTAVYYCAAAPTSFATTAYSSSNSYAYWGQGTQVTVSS
Result: 0.049

Query: Report measured PE binding ELISA OD; entry is FJ1427_P035MP07G03 (VHH, tested as periplasmic extract; also called Clone nr) VHH: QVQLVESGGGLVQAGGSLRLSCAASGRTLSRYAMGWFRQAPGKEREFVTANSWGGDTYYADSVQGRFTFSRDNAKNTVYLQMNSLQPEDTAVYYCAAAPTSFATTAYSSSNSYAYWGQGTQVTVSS
Result: 0.048

Query: Report measured PE binding ELISA OD; entry is FJ1427_P035MP07B06 (VHH, tested as periplasmic extract; also called Clone nr; 618) VHH: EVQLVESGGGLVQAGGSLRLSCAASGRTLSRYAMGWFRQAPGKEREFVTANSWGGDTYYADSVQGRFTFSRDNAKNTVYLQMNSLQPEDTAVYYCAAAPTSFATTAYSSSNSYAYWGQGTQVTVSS
Result: 0.045

Query: Report measured PE binding ELISA OD; entry is FJ1427_P035MP07D01 (VHH, tested as periplasmic extract; also called Clone nr; 580) VHH: QVQLVESGGGLVQAGGSLRLSCAASGRTLSRYAMGWFRQAPGKEREFVAANSWGGDTYYTDSVEGRFTFSRDNAKNAVYLQMNSLQPGDTAVYYCAAAPTSFATTAYSSSNSYSYWGQGTQVTVSS
Result: 0.051

Query: Report measured PE binding ELISA OD; entry is FJ1427_P035MP07F06 (VHH, tested as periplasmic extract; also called Clone nr) VHH: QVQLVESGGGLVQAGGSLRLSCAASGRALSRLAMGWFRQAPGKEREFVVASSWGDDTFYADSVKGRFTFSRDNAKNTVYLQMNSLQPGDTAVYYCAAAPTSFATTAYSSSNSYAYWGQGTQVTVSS
Result: 0.082

Query: Report measured PE binding ELISA OD; entry is FJ1427_P035MP07C06 (VHH, tested as periplasmic extract; also called Clone nr) VHH: QVQLVESGGGLVQAGGSLRLSCAASGRTLSRYAMGWFRQAPGKEREFVTANSWGGDTYYADSVQGRFTFSRDNAENTVYLQMNSLQPEDTAVYYCAAAPTSFATTAYSSSNSYAYWGQGTQVTVSS
Result: 0.045

Query: Report measured PE binding ELISA OD; entry is FJ1427_P035MP07E08 (VHH, tested as periplasmic extract; also called Clone nr) VHH: QVQLVESGGGLVQAGGSLRLSCAASGRTLSRYAMGWFRQAPGKEREFVAADSWGGDTYYDDSVEGRFTFSRDIAKNAVYLQMNSLQPEDTAVYYCAAAPTSFATTAYSSSNSYAYWGQGTQVTVSS
Result: 0.049

Query: Report measured PE binding ELISA OD; entry is FJ1427_P035MP07G08 (VHH, tested as periplasmic extract; also called Clone nr) VHH: QVQLVESGGGLVQAGGSLRLSCAASGRTLSRYAMGWFRQAPGREREFVTANSWGGDTYYADSVQGRFTFSRDNAKNTVYLQMSSLQPEDTAVYYCAAAPTSFATTAYSSSNSYAYWGQGTQVTVSS
Result: 0.047

Query: Report measured PE binding ELISA OD; entry is FJ1427_P035MP07H07 (VHH, tested as periplasmic extract; also called Clone nr) VHH: QVQLVESGGGLVQAGDSLRLSCAASGRTLSRYAMGWFRQAPGKEREFVAATSWGGDSYYADSVEGRFTFSRDNAKNAVYLQMNSLQPEDTAVYYCAAAPTSFATTAYSSSNSYANWGQGTQVTVSS
Result: 0.047

Query: Report measured PE binding ELISA OD; entry is FJ1427_P035MP07F10 (VHH, tested as periplasmic extract; also called Clone nr; 654) VHH: QVQLQESGGGLVQAGGSLRLSCAASGRTLSRYAMGWFRQAPGKEREFVACDSWGGDTFYADSVEGRFTFSRDNAKNATYLQMNSLQPEDTAVYYCAGAPTSFATTAYSSSNSYTVWGQGTQVTVSL
Result: 0.089

Query: Report measured PE binding ELISA OD; entry is FJ1427_P035MP07E10 (VHH, tested as periplasmic extract; also called Clone nr; 653) VHH: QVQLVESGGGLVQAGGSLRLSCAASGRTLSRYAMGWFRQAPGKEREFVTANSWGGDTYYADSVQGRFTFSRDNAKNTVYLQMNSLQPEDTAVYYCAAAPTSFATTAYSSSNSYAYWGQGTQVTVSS
Result: 0.047

Query: Report measured PE binding ELISA OD; entry is FJ1427_P035MP07E02 (VHH, tested as periplasmic extract; also called Clone nr) VHH: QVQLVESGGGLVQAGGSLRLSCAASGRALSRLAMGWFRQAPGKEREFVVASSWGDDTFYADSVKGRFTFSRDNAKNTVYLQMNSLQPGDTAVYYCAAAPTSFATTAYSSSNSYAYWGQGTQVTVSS
Result: 0.061
